# 50% crystal dissolution (min), 50 uM listing for each entry below
TARGET_OR_SYSTEM: T1, recombinant human galectin-10, TEV-cleaved (human, UniProt Q05315 1-142)
T1 sequence: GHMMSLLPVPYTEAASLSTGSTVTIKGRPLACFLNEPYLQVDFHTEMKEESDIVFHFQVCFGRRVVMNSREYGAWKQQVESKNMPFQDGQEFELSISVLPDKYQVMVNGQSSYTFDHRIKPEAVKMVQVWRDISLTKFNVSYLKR
PROTOCOL_TEXT: cell-based or functional assay
READOUT_LABEL: 50% crystal dissolution (min), 50 uM

11F12 mouse IgG1 (antibody, V domains shown, VH and VL cloned in frame with mouse IgG1 constant domains; also called 11F12 mIgG1) VH: QVQLQESGGGLVQPGGSLRLSCAASGFTFSTNYMNWVRQAPGKGLEWVSGITSGGGRTYYADSVKGRFTISRDNAKNTLYLQMNSLKPEDTALYYCARTDHAWLDAWGQGTLVTVSS VL: HSAVTQPPSVSGTLGKTVTISCAGTSSDVGYGNYVSWYQHLPGTAPKLLIYAVSTRASGVPDRFSGSKSGNTASLTISGLQSEDEGDYYCASYSVRNNVVFGGGTRLTVL; 65.4
8H11 Fab (Fab, V domains shown, Fab with human CH1 (including part of the hinge region) and human lambda constant domain; also called 8H11 hFab) VH: ELQLVESGGGLVQPGGSLRLSCAASGFTFSTNYMNWVRQAPGKGLEWVSGITSGGGRTYYADSVKGRFTISRDNAKNTLYLQMNSLKPEDTALYYCARTDHAWLDAWGQGTLVTVSS VL: QAGLTQPPSVSGTLGKTVTISCAGTSSDVGYGNYVSWYQQLPGTAPKLLIYAVSTRASGIPDRFSGSKSGNTASLTISGLLSEDEADYYCASYRSSNNYVFGGGTKLTVL; 48.5
